The reported numbers originate from the supplement of paper PMC5908809.

Tested on: normal primary NK cells, pool 3 (3 donors) (IL-2 2.5 ng/mL)
Assay: drug sensitivity score (DSS) (DSS units); higher = more sensitive; extreme values may be limits of the assay
Conditions: 72 h

>  <molecule>
COc1cc(N2CCC(N3CCN(C)CC3)CC2)ccc1Nc1ncnc(Nc2ccccc2S(=O)(=O)C(C)C)n1 [ASP3026] (max concentration tested 10000 nM)

>  <drug sensitivity score>
0.03

$$$$
>  <molecule>
Nc1ccccc1NC(=O)c1ccc(CNC(=O)OCc2cccnc2)cc1 [Entinostat] (max concentration tested 10000 nM)

>  <drug sensitivity score>
5.88

$$$$
>  <molecule>
COc1cc2c(NC3CCN(C(C)C)CC3)nc(N3CCC(F)(F)CC3)nc2cc1OCCCN1CCCC1 [UNC0642] (max concentration tested 10000 nM)

>  <drug sensitivity score>
5.16

$$$$
>  <molecule>
NC(=O)N1CCC(CC(=O)N2CCC([C@H]3c4ncc(Br)cc4CCc4cc(Cl)cc(Br)c43)CC2)CC1 [Lonafarnib] (max concentration tested 10000 nM)

>  <drug sensitivity score>
4.3

$$$$
>  <molecule>
CN1CCC(COc2cnc(-c3cccc(Cn4nc(-c5cccc(C#N)c5)ccc4=O)c3)nc2)CC1 (max concentration tested 1000 nM)

>  <drug sensitivity score>
0

$$$$
>  <molecule>
O=C(Cc1ccc(-c2ccc(OCCN3CCOCC3)cc2)cn1)NCc1ccccc1 [KX2-391] (max concentration tested 10000 nM)

>  <drug sensitivity score>
0

$$$$
>  <molecule>
Nc1nc(F)nc2c1ncn2[C@@H]1O[C@H](CO)[C@@H](O)[C@@H]1O [Fludarabine] (max concentration tested 10000 nM)

>  <drug sensitivity score>
9.07

$$$$
>  <molecule>
O=C(O)CCCCC(CCSCc1ccccc1)SCc1ccccc1 (configuration not stated) [CPI-613] (max concentration tested 10000 nM)

>  <drug sensitivity score>
0

$$$$
>  <molecule>
CS(=O)(=O)c1ccc(-c2cnc(N)c(C(=O)Nc3ccccc3)n2)cc1 [VE-821] (max concentration tested 10000 nM)

>  <drug sensitivity score>
0.29

$$$$
>  <molecule>
Cc1cc(C)c(CNC(=O)c2cc(-c3ccc(CN4CCOCC4)cc3)cc3c2cnn3C2CCCC2)c(=O)[nH]1 [EPZ-5687] (max concentration tested 10000 nM)

>  <drug sensitivity score>
0

$$$$
>  <molecule>
CC[C@H](C)C(=O)O[C@H]1C[C@H](O)C=C2C=C[C@H](C)[C@H](CC[C@@H](O)C[C@@H](O)CC(=O)O)[C@H]21 [Pravastatin] (max concentration tested 10000 nM)

>  <drug sensitivity score>
0

$$$$
>  <molecule>
CC[C@H](Nc1ncnc2[nH]cnc12)c1nc2cccc(F)c2c(=O)n1-c1ccccc1 [Idelalisib] (max concentration tested 10000 nM)

>  <drug sensitivity score>
1.78

$$$$

* * *

Below: a set of entries, each annotated with reported percent inhibition of viability.
System: normal primary NK cells, pool 2 (3 donors) (IL-2 2.5 ng/mL)
Assay: percent inhibition of viability; higher = more inhibition
Details: 72 h; 100 nM

>  <compound>
CNC(=O)CN1CCC(Oc2cc3c(Nc4cccc(Cl)c4F)ncnc3cc2OC)CC1 [Sapitinib] (max concentration tested 1000 nM)

>  <target.or.system>
normal primary NK cells, pool 2 (3 donors) (IL-2 2.5 ng/mL)

>  <percent inhibition of viability (%)>
4.26

$$$$
>  <compound>
Cc1ccc(NC(=O)c2ccc(CN3CCN(C)CC3)cc2)cc1Nc1nc(-c2cccnc2)cs1 [Masitinib] (max concentration tested 10000 nM)

>  <target.or.system>
normal primary NK cells, pool 2 (3 donors) (IL-2 2.5 ng/mL)

>  <percent inhibition of viability (%)>
-8.85

$$$$
>  <compound>
CCc1cncnc1N1CCN(Cc2nc3ccc(C(F)(F)F)cc3[nH]2)CC1 (max concentration tested 10000 nM)

>  <target.or.system>
normal primary NK cells, pool 2 (3 donors) (IL-2 2.5 ng/mL)

>  <percent inhibition of viability (%)>
7.58

$$$$
>  <compound>
CC(=O)O[C@]1(C(C)=O)CC[C@H]2[C@@H]3C=C(C)C4=CC(=O)CC[C@]4(C)[C@H]3CC[C@@]21C [Megestrol acetate] (max concentration tested 10000 nM)

>  <target.or.system>
normal primary NK cells, pool 2 (3 donors) (IL-2 2.5 ng/mL)

>  <percent inhibition of viability (%)>
-0.74

$$$$
>  <compound>
C[C@]1(O)C[C@@H](c2nc(-c3ccc4ccc(-c5ccccc5)nc4c3)c3c(N)nccn32)C1 [Linsitinib] (max concentration tested 10000 nM)

>  <target.or.system>
normal primary NK cells, pool 2 (3 donors) (IL-2 2.5 ng/mL)

>  <percent inhibition of viability (%)>
-5.12

$$$$
>  <compound>
CC(C)c1cc(-c2n[nH]c(=O)n2-c2ccc3c(ccn3C)c2)c(O)cc1O [Ganetespib] (max concentration tested 1000 nM)

>  <target.or.system>
normal primary NK cells, pool 2 (3 donors) (IL-2 2.5 ng/mL)

>  <percent inhibition of viability (%)>
77.6

$$$$
>  <compound>
Cc1ccc(F)c(NC(=O)Nc2ccc(-c3cccc4[nH]nc(N)c34)cc2)c1 [Linifanib] (max concentration tested 1000 nM)

>  <target.or.system>
normal primary NK cells, pool 2 (3 donors) (IL-2 2.5 ng/mL)

>  <percent inhibition of viability (%)>
7.22

$$$$
>  <compound>
N#CC[C@H](C1CCCC1)n1cc(-c2ncnc3[nH]ccc23)cn1 [Ruxolitinib] (max concentration tested 10000 nM)

>  <target.or.system>
normal primary NK cells, pool 2 (3 donors) (IL-2 2.5 ng/mL)

>  <percent inhibition of viability (%)>
50.1

$$$$
>  <compound>
CCn1c(=O)c(-c2cc[nH]n2)cc2c(C)nc(N)nc21 [Voxtalisib] (max concentration tested 10000 nM)

>  <target.or.system>
normal primary NK cells, pool 2 (3 donors) (IL-2 2.5 ng/mL)

>  <percent inhibition of viability (%)>
12.1

$$$$
>  <compound>
CC(C)[C@H]1C(=O)N[C@@H](CCCNC(=N)N)C(=O)NCC(=O)N[C@@H](CC(=O)O)C(=O)N[C@H](Cc2ccccc2)C(=O)N1C [Cilengitide] (max concentration tested 10000 nM)

>  <target.or.system>
normal primary NK cells, pool 2 (3 donors) (IL-2 2.5 ng/mL)

>  <percent inhibition of viability (%)>
-5.82

$$$$
>  <compound>
COc1cc2/c(=N/c3ccc(Br)cc3F)nc[nH]c2cc1OCC1CCN(C)CC1 [Vandetanib] (max concentration tested 1000 nM)

>  <target.or.system>
normal primary NK cells, pool 2 (3 donors) (IL-2 2.5 ng/mL)

>  <percent inhibition of viability (%)>
-7.23

$$$$
>  <compound>
Nc1nc2[nH]cnc2c(=S)[nH]1 [Thioguanine] (max concentration tested 10000 nM)

>  <target.or.system>
normal primary NK cells, pool 2 (3 donors) (IL-2 2.5 ng/mL)

>  <percent inhibition of viability (%)>
9.06

$$$$

* * *

Test system: normal primary NK cells, pool 1 (3 donors) (IL-2 2.5 ng/mL)
Assay: percent inhibition of viability; higher = more inhibition
Details: 72 h; 1000 nM
Rule for this label: Criterion met means percent inhibition of viability is less than 20%; Criterion not met means percent inhibition of viability is at least 20%.

>  <compound>
Cc1cc(C)c(CNC(=O)c2cc(-c3ccc(CN4CCOCC4)cc3)cc3c2cnn3C2CCCC2)c(=O)[nH]1 [EPZ-5687] (max concentration tested 10000 nM)

>  <class.name>
Criterion met

$$$$
>  <compound>
COc1cccc2cc(-c3nc([C@H]4CC[C@H](C(=O)O)CC4)n4ncnc(N)c34)[nH]c12 [OSI-027] (max concentration tested 10000 nM)

>  <class.name>
Criterion met

$$$$
>  <compound>
CNC(=O)c1cc(COc2nnc(Nc3ccc(Cl)cc3)c3ccoc23)ccn1 [Telatinib] (max concentration tested 10000 nM)

>  <class.name>
Criterion met

$$$$
>  <compound>
Nc1nccc(-c2c(-c3ccc(F)cc3)ncn2C2CCCCC2)n1 (max concentration tested 10000 nM)

>  <class.name>
Criterion met

$$$$
>  <compound>
N#CC[C@H](C1CCCC1)n1cc(-c2ncnc3[nH]ccc23)cn1 [Ruxolitinib] (max concentration tested 10000 nM)

>  <class.name>
Criterion not met

$$$$
>  <compound>
Nc1ccn([C@@H]2O[C@H](CO)[C@@H](O)[C@@H]2O)c(=O)n1 [Cytarabine] (max concentration tested 10000 nM)

>  <class.name>
Criterion not met

$$$$

* * *

Below: a set of entries, each annotated with reported percent inhibition of viability.
System: normal primary NK cells, pool 2 (3 donors) (IL-2 2.5 ng/mL)
Assay: percent inhibition of viability; higher = more inhibition
Settings: 72 h; 1000 nM

>  <compound>
CNC(=O)c1cccc(-c2ccc3c(N4CCOC[C@@H]4C)nc(N4CCOC[C@@H]4C)nc3n2)c1 [AZD2014] (max concentration tested 10000 nM)

>  <percent inhibition of viability / %>
28.2

$$$$
>  <compound>
CC[C@H](NC(=O)[C@H](C)NC)C(=O)N1C[C@@H](O)C[C@H]1Cc1c(-c2[nH]c3cc(F)ccc3c2C[C@@H]2C[C@H](O)CN2C(=O)[C@H](CC)NC(=O)[C@H](C)NC)[nH]c2cc(F)ccc12 [Birinapant] (max concentration tested 1000 nM)

>  <percent inhibition of viability / %>
53.1

$$$$
>  <compound>
CCc1cc2c(cc1N1CCC(N3CCOCC3)CC1)C(C)(C)c1[nH]c3cc(C#N)ccc3c1C2=O [Alectinib] (max concentration tested 1000 nM)

>  <percent inhibition of viability / %>
3.39

$$$$
>  <compound>
C#Cc1cccc(Nc2ncnc3cc(OC)c(OCCCCCCC(=O)NO)cc23)c1 [CUDC-101] (max concentration tested 10000 nM)

>  <percent inhibition of viability / %>
84.5

$$$$
>  <compound>
Nc1nc(Cl)nc2c1ncn2[C@H]1C[C@H](O)[C@@H](CO)O1 [Cladribine] (max concentration tested 1000 nM)

>  <percent inhibition of viability / %>
93.7

$$$$
>  <compound>
CC[C@H](C)C(=O)O[C@H]1C[C@H](O)C=C2C=C[C@H](C)[C@H](CC[C@@H](O)C[C@@H](O)CC(=O)O)[C@H]21 [Pravastatin] (max concentration tested 10000 nM)

>  <percent inhibition of viability / %>
-9.05

$$$$
>  <compound>
C=CC(=O)N1CCC[C@@H](n2nc(-c3ccc(Oc4ccccc4)cc3)c3c(N)ncnc32)C1 [Ibrutinib] (max concentration tested 1000 nM)

>  <percent inhibition of viability / %>
10.5

$$$$
>  <compound>
Cc1ccc(-c2cc(C(F)(F)F)nn2-c2ccc(S(N)(=O)=O)cc2)cc1 [Celecoxib] (max concentration tested 10000 nM)

>  <percent inhibition of viability / %>
-1.27

$$$$
>  <compound>
COc1cccc2c1C(=O)c1c(O)c3c(c(O)c1C2=O)C[C@@](O)(C(=O)CO)C[C@@H]3O[C@H]1C[C@H](N)[C@H](O)[C@H](C)O1 [Doxorubicin] (max concentration tested 1000 nM)

>  <percent inhibition of viability / %>
94.4

$$$$
